system: KM12 colon; assay: NCI tumour cell line growth inhibition, 48 h; in the data active means GI50 below about 0.43 µM; inactive means the rest
Mark one answer only. Choices: 1.0 (active), 0.0 (inactive)

Tell me the assay call for CC1(C)[C@@H](OC(N)=O)C=C[C@]2(CO)[C@H]3CC[C@]4(C)[C@@H](c5ccc(=O)oc5)[C@@H](Cl)C[C@]4(O)C3=CC[C@@H]12 please. 1.0

Tell me the assay call for CCOC(=O)Nc1nc2cc(OCC)ccc2s1 please. 0.0

Tell me the assay call for CS(=O)(=O)[O-].CS(=O)(=O)[O-].NC1CCCCC1N.[Pt+4] (stereo not drawn) please. 0.0

Tell me the assay call for O=C(N/N=C/c1ccc(Cl)cc1)c1[nH]c2ccc(Cl)cc2c1-c1ccccc1 please. 1.0

Tell me the assay call for C=C(C)[C@@H]1CC[C@]2(CO)CC[C@]3(C)[C@H](CC[C@@H]4[C@@](C)(CCCN)[C@H](C(=C)C)CC[C@]43C)[C@@H]12 please. 0.0

Tell me the assay call for CC(C)(C)n1cc(-c2ccnc(NCCCNS(=O)(=O)c3ccc(Br)cc3)c2)c(-c2cccc(O)c2)n1 please. 0.0

----------
test system: UO-31 renal; test: NCI tumour cell line growth inhibition, 48 h
attribute.measured: log10(TGI) (log10 of the value in µM)
The common logarithm of TGI in µM is what is listed.

Answered cases to consult:
molecule	study.target	experimental.result
O=c1[nH]c2cc([N+](=O)[O-])c(Nc3c4ccccc4nc4ccccc34)c([N+](=O)[O-])c2[nH]1	UO-31 renal	0.78
COc1ccc([C@@H](O)c2cc(-c3ncnc4cc(N5CCOCC5)ccc34)c(F)cc2Cl)nn1	UO-31 renal	1.36
COc1ccc(N2C(=O)C3c4[nH]c5ccccc5c4C4CCCCCCC4C3C2=O)cc1 (stereo unspecified)	UO-31 renal	1.64
COc1ccc(OC)c(C[P+](c2ccccc2)(c2ccccc2)c2ccccc2)c1	UO-31 renal	1.90
CCN(CC)CCCC(C)Nc1cc(-c2ccccc2)nc2cc(OC)ccc12 (stereo unspecified)	UO-31 renal	0.96

Query Cn1cc(C2=C(c3cn(C)c4cc(N)ccc34)C(=O)NC2=O)c2ccccc21 yields log10(TGI) of 1.19

Query N=c1ccc2nc3c(cc(N)c4ccccc43)oc-2c1 yields log10(TGI) of -0.02

Query Clc1ccc2c(c1)C(N1CCNCC1)=Nc1ccccc1O2 yields log10(TGI) of 1.03

Query C[C@]12CC[C@@H](OC(=O)N(CCCl)N=O)C[C@@H]1CC[C@@H]1[C@@H]2CC[C@]2(C)C(=O)CC[C@@H]12 yields log10(TGI) of 1.26

----------
system: OVCAR-3 ovarian; assay: NCI tumour cell line growth inhibition, 48 h
attribute.measured: TGI

Answered cases to consult:
molecule	study.target	TGI
COc1cc2oc(-c3ccc4c(c3)OCO4)c(OC)c(=O)c2c(O)c1OC	OVCAR-3 ovarian	> 50 µM
COC(=O)C1CC23C=CCN4CC(C2C)C2(c5ccccc5NC12)C43 (configuration not stated)	OVCAR-3 ovarian	> 100 µM
COc1cc2cc(C(=O)N3CC(CCl)c4c3cc(NC(=O)C(C)Nc3c([N+](=O)[O-])cc(C(=O)NCCN(C)C)cc3[N+](=O)[O-])c3ccccc43)[nH]c2c(OC)c1OC (configuration not stated)	OVCAR-3 ovarian	0.433 µM

Query COC(=O)c1ccc2c(c1)C(=O)c1c-2n(CCCN)c(=O)c2cc(OC)c(OC)cc12 yields TGI of > 56.8 µM

Query COc1ccc2ccccc2c1CN1CCOCCOCCN(Cc2c(OC)ccc3ccccc23)CCOCCOCC1 yields TGI of > 100 µM

Query C=CCOC1(CC=C)C(=O)OC2C(O)COC21O (configuration not stated) yields TGI of > 100 µM

Query CC[C@@]12C=CCN3CC[C@]4(c5cc(NC(=O)COc6cc(OCC(=O)Nc7cc8c(cc7OC)N(C)[C@H]7[C@@](O)(C(=O)OC)[C@H](OC(C)=O)[C@]9(CC)C=CCN%10CC[C@]87[C@@H]%109)cc7oc(-c8ccccc8)cc(=O)c67)c(OC)cc5N(C)[C@@H]4[C@](O)(C(=O)OC)[C@H]1OC(C)=O)[C@H]32 yields TGI of 9.72 µM

Recorded values, source PubChem BioAssay (NCI).
